Below is a list of entries, each paired with its recorded pIC50 value.
- assay-target: UniProt Q4U2R8
- Sequence (Q4U2R8 whole entry): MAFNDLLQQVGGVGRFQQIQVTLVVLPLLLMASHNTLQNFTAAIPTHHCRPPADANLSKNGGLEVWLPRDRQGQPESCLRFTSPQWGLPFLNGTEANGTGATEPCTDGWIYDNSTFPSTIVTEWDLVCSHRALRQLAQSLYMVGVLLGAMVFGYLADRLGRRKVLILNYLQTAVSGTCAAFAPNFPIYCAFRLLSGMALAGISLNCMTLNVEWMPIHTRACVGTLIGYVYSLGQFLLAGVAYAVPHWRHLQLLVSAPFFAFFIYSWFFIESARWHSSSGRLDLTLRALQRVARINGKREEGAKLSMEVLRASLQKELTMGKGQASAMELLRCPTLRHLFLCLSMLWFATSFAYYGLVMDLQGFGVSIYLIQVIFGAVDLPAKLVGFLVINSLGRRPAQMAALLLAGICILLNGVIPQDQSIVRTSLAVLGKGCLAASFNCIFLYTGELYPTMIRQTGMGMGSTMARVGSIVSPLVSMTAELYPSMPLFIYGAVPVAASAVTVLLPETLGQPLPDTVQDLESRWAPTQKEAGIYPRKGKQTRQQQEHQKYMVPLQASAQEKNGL
- measurement-protocol: Inhibition of human OAT1 expressed in HEK293 cells assessed as 6-CF uptake after 5 mins by fluorescence assay
pIC50: −log10 of the molar value.
property-measured: pIC50

molecule: COc1ccc(/C=C\c2cc(OC)c(OC)c(OC)c2)cc1O[C@@H]1O[C@H](CO)[C@@H](O)[C@H](O)[C@H]1O
property-measured: pIC50
inequality-symbol: <
measurement: 3.70

molecule: COc1ccc(/C=C\c2cc(OC)c(OC)c(OC)c2)cc1O [COMBRETASTATIN A4]
property-measured: pIC50
inequality-symbol: =
measurement: 4.38
